From: ChEMBL document CHEMBL5331122

method.description: Hemolytic activity in mouse red blood cells assessed as hemolysis at 128 microg/ml incubated for 1 hr relative to control
Format: toxicity, cell-based, Erythrocyte
condition.summary: red blood cells (erythrocytes), read-out: Activity
metric: hemolysis at 1 h, 128 µg/mL (%)
Respond with the bare value in %.

Incoming: Name the recorded hemolysis at 1 h, 128 µg/mL for CCCCCCCC(=O)N[C@@H](CCN)C(=O)N[C@H](C(=O)N[C@@H](CCN)C(=O)N[C@H](Cc1ccccc1)C(=O)N[C@@H](CC(C)C)C(=O)N[C@@H](CCN)C(=O)N[C@@H](C(=O)N[C@@H](CC(C)C)C(=O)N[C@@H](Cc1ccc(O)cc1)C(N)=O)C(C)C)[C@@H](C)CC .
Outgoing: 10

----------
Test system: Staphylococcus aureus
method.description: Antibacterial activity against Staphylococcus aureus ATCC 25923 assessed as fold increase in MIC in presence of MgCl2
Type: functional
Where a SMILES comes first, the peptide text is derived from it. Bridges are numbered along the chain shown (N, C = ends). [ ]: non-standard residue; d: D form. The star is where a group is joined. Heptanoyl(6-Me) = CC(C)CCCCC(=O)*; Dab = NCC[C@H](N)C(=O)O

>  <molecule>
CCCCCCCC(=O)N[C@@H](CCN)C(=O)N[C@H](C(=O)N[C@@H](CCN)C(=O)N[C@H](Cc1ccccc1)C(=O)N[C@@H](CC(C)C)C(=O)N[C@@H](CCN)C(=O)N[C@@H](C(=O)N[C@@H](CC(C)C)C(=O)N[C@@H](Cc1ccc(O)cc1)C(N)=O)C(C)C)[C@@H](C)CC

>  <fold change (FC)>
<=2

$$$$
>  <molecule>
CC(C)CCCCC(=O)N[C@@H](CCN)C(=O)N[C@H](C(=O)N[C@@H](CCN)C(=O)N[C@H]1CCNC(=O)[C@H]([C@@H](C)O)NC(=O)[C@H](CCN)NC(=O)[C@H](CCN)NC(=O)[C@H](CC(C)C)NC(=O)[C@@H](Cc2ccccc2)NC(=O)[C@H](CCN)NC1=O)[C@@H](C)O ({Heptanoyl(6-Me)}-[Dab]T[Dab][Dab][Dab][dF]L[Dab][Dab]T; lactam 4-C)

>  <fold change (FC)>
4

$$$$
>  <molecule>
CC[C@H](C)[C@@H]1NC(=O)[C@H](CCN)NC(=O)C[C@@H](C(C)C)OC(=O)[C@H]([C@@H](C)O)NC(=O)[C@H](CC(C)C)NC(=O)[C@@H](C(C)C)NC(=O)[C@H](CCN)NC(=O)[C@H](CC(C)C)NC(=O)[C@@H](Cc2ccccc2)NC(=O)[C@H](CCN)NC1=O

>  <fold change (FC)>
<=2

$$$$
>  <molecule>
CCCCCCC(=O)N[C@@H](CCN)C(=O)N[C@H](C(=O)N[C@@H](CCN)C(=O)N[C@H](Cc1ccccc1)C(=O)N[C@@H](CC(C)C)C(=O)N[C@@H](CCN)C(=O)N[C@@H](C(=O)N[C@@H](CC(C)C)C(=O)N[C@@H](Cc1ccc(O)cc1)C(N)=O)C(C)C)[C@@H](C)CC

>  <fold change (FC)>
<=2

$$$$

----------
Test system: Staphylococcus aureus
method.description: Antibacterial activity against Staphylococcus aureus ATCC 25923 assessed as bacterial growth inhibition incubated for 18 hrs by broth microdilution method
Type: functional
metric: MIC

>  <molecule>
CCCCCCCCCCCCC(=O)N[C@@H](CCN)C(=O)N[C@H](C(=O)N[C@@H](CCN)C(=O)N[C@H](Cc1ccccc1)C(=O)N[C@@H](CC(C)C)C(=O)N[C@@H](CCN)C(=O)N[C@@H](C(=O)N[C@@H](CC(C)C)C(=O)N[C@H](C(N)=O)[C@@H](C)O)C(C)C)[C@@H](C)CC

>  <MIC>
32 µg/mL

$$$$
>  <molecule>
CCCCCC(=O)N[C@@H](CCN)C(=O)N[C@H](C(=O)N[C@@H](CCN)C(=O)N[C@H](Cc1ccccc1)C(=O)N[C@@H](CC(C)C)C(=O)N[C@@H](CCN)C(=O)N[C@@H](C(=O)N[C@@H](CC(C)C)C(=O)N[C@@H](Cc1ccc(O)cc1)C(N)=O)C(C)C)[C@@H](C)CC

>  <MIC>
16 µg/mL

$$$$
>  <molecule>
CCC[C@H](O)CC(=O)N[C@@H](CCN)C(=O)N[C@H](C(=O)N[C@@H](CCN)C(=O)N[C@H](Cc1ccccc1)C(=O)N[C@@H](CC(C)C)C(=O)N[C@@H](CCN)C(=O)N[C@@H](C(=O)N[C@@H](CC(C)C)C(=O)N[C@H](C(N)=O)[C@@H](C)O)C(C)C)[C@@H](C)CC

>  <MIC>
128 µg/mL

$$$$

Kindly consider the entry below.
Incoming: Name the recorded MIC for CC[C@H](C)[C@H](NC(=O)[C@H](CCN)NC(=O)CC(O)C(C)C)C(=O)N[C@@H](CCN)C(=O)N[C@H](Cc1ccccc1)C(=O)N[C@@H](CC(C)C)C(=O)N[C@@H](CCN)C(=O)N[C@@H](C(=O)N[C@@H](CC(C)C)C(=O)N[C@H](C(N)=O)[C@@H](C)O)C(C)C (some centres undefined) .
Outgoing: > 128 µg/mL

----------
System: Staphylococcus aureus
method.description: Inhibition of biofilm formation in Staphylococcus aureus ATCC 25923 assessed as inhibition of biofilm formation at 1/4 times MIC incubated for 24 hrs by crystal violet staining based analysis
Format: functional, organism-based
Activity calls are given as the source filed them. The calls are words filed in the database; no cut-off is given here. Where a SMILES comes first, the peptide text is derived from it. Bridges are numbered along the chain shown (N, C = ends). [ ]: non-standard residue; d: D form. The star is where a group is joined. Heptanoyl(6-Me) = CC(C)CCCCC(=O)*; dDab = NCC[C@@H](N)C(=O)O; Dab = NCC[C@H](N)C(=O)O
metric: inhibition

>  <compound>
CCCCCCC(=O)N[C@@H](CCN)C(=O)N[C@H](C(=O)N[C@@H](CCN)C(=O)N[C@H](Cc1ccccc1)C(=O)N[C@@H](CC(C)C)C(=O)N[C@@H](CCN)C(=O)N[C@@H](C(=O)N[C@@H](CC(C)C)C(=O)N[C@@H](Cc1ccc(O)cc1)C(N)=O)C(C)C)[C@@H](C)CC

>  <metric>
inhibition

>  <readout.value>
Active

$$$$
>  <compound>
CC[C@H](C)[C@@H]1NC(=O)[C@H](CCN)NC(=O)C[C@@H](C(C)C)OC(=O)[C@H]([C@@H](C)O)NC(=O)[C@H](CC(C)C)NC(=O)[C@@H](C(C)C)NC(=O)[C@H](CCN)NC(=O)[C@H](CC(C)C)NC(=O)[C@@H](Cc2ccccc2)NC(=O)[C@H](CCN)NC1=O

>  <metric>
inhibition

>  <readout.value>
Active

$$$$
>  <compound>
CCCCCCCC(=O)N[C@@H](CCN)C(=O)N[C@H](C(=O)N[C@@H](CCN)C(=O)N[C@H](Cc1ccccc1)C(=O)N[C@@H](CC(C)C)C(=O)N[C@@H](CCN)C(=O)N[C@@H](C(=O)N[C@@H](CC(C)C)C(=O)N[C@@H](Cc1ccc(O)cc1)C(N)=O)C(C)C)[C@@H](C)CC

>  <metric>
inhibition

>  <readout.value>
Active

$$$$
>  <compound>
CC(C)CCCCC(=O)N[C@@H](CCN)C(=O)N[C@H](C(=O)N[C@@H](CCN)C(=O)N[C@H]1CCNC(=O)[C@H]([C@@H](C)O)NC(=O)[C@H](CCN)NC(=O)[C@H](CCN)NC(=O)[C@H](CC(C)C)NC(=O)[C@@H](Cc2ccccc2)NC(=O)[C@@H](CCN)NC1=O)[C@@H](C)O ({Heptanoyl(6-Me)}-[Dab]T[Dab][Dab][dDab][dF]L[Dab][Dab]T; lactam 4-C)

>  <metric>
inhibition

>  <readout.value>
Active

$$$$

----------
Test system: Enterococcus faecalis
method.description: Antibacterial activity against Enterococcus faecalis ATCC 29212 assessed as bacterial growth inhibition incubated for 18 hrs by broth microdilution method
Type: functional
metric: MIC (µg/mL)
Respond with the bare value in µg/mL.

Incoming: Name the recorded MIC for CCCCCCCC(=O)N[C@@H](CCN)C(=O)N[C@H](C(=O)N[C@@H](CCN)C(=O)N[C@H](Cc1ccccc1)C(=O)N[C@@H](CC(C)C)C(=O)N[C@@H](CCN)C(=O)N[C@@H](C(=O)N[C@@H](CC(C)C)C(=O)N[C@@H](Cc1ccc(O)cc1)C(N)=O)C(C)C)[C@@H](C)CC .
Outgoing: 16

----------
Test system: Erythrocyte
method.description: Hemolytic activity in mouse red blood cell assessed as hemolysis incubated for 1 hr
Format: toxicity, cell-based
condition.summary: dose 4-256 µg/ml
Where a SMILES comes first, the peptide text is derived from it. Bridges are numbered along the chain shown (N, C = ends). [ ]: non-standard residue; d: D form. The star is where a group is joined. Heptanoyl(6-Me) = CC(C)CCCCC(=O)*; Dab = NCC[C@H](N)C(=O)O
metric: HC10 (µg/mL)
Respond with the bare value in µg/mL.

Some molecules with recorded HC10:
>  <molecule>
CCCCCCCCCCCC(=O)N[C@@H](CCN)C(=O)N[C@H](C(=O)N[C@@H](CCN)C(=O)N[C@H](Cc1ccccc1)C(=O)N[C@@H](CC(C)C)C(=O)N[C@@H](CCN)C(=O)N[C@@H](C(=O)N[C@@H](CC(C)C)C(=O)N[C@H](C(N)=O)[C@@H](C)O)C(C)C)[C@@H](C)CC

>  <measure.unit>
µg/mL

>  <HC10>
8

$$$$
>  <molecule>
CCCCCCCCC(=O)N[C@@H](CCN)C(=O)N[C@H](C(=O)N[C@@H](CCN)C(=O)N[C@H](Cc1ccccc1)C(=O)N[C@@H](CC(C)C)C(=O)N[C@@H](CCN)C(=O)N[C@@H](C(=O)N[C@@H](CC(C)C)C(=O)N[C@H](C(N)=O)[C@@H](C)O)C(C)C)[C@@H](C)CC

>  <measure.unit>
µg/mL

>  <HC10>
64

$$$$

Incoming: Name the recorded HC10 for CC(C)CCCCC(=O)N[C@@H](CCN)C(=O)N[C@H](C(=O)N[C@@H](CCN)C(=O)N[C@H]1CCNC(=O)[C@H]([C@@H](C)O)NC(=O)[C@H](CCN)NC(=O)[C@H](CCN)NC(=O)[C@H](CC(C)C)NC(=O)[C@@H](Cc2ccccc2)NC(=O)[C@H](CCN)NC1=O)[C@@H](C)O ({Heptanoyl(6-Me)}-[Dab]T[Dab][Dab][Dab][dF]L[Dab][Dab]T; lactam 4-C) .
Outgoing: 512
